- Read-out: Macrophage colony-stimulating factor (MCSF), CSF1 (gene 1435)
- MEASUREMENT DESCRIPTION: BSK_LPS_MCSF: BioMAP Diversity Plus: LPS Assay for Macrophage colony-stimulating factor (MCSF) Biomarker Activity (AID 2283083)
- ASSAY CONDITIONS: primary human HUVEC with PBMC; actives raise or lower the signal
Calls of active or inactive are those of the source. The calls were made as follows: active = hit-call score of the fitted dose curve at least 0.9, where 1 is the maximum; inactive = score below 0.9.
Form entry, call: pick from Y for active, N for inactive

>  <SMILES DATA>
CC(C)(O)c1cnn2c(-c3ccc(F)c(-c4c(F)cccc4C#N)c3)cnc2n1

>  <DISCRETE LABEL>
Y

$$$$
>  <SMILES DATA>
c1ccc2c(c1)-c1cccc3cccc-2c13

>  <DISCRETE LABEL>
N

$$$$
>  <SMILES DATA>
O=[N+]([O-])c1ccc(Oc2ccc(Cl)cc2Cl)cc1

>  <DISCRETE LABEL>
Y

$$$$
>  <SMILES DATA>
Cc1ccc([N+](=O)[O-])cc1

>  <DISCRETE LABEL>
N

$$$$
>  <SMILES DATA>
O=Cc1ccco1

>  <DISCRETE LABEL>
N

$$$$
>  <SMILES DATA>
COC(=O)c1ccccc1N

>  <DISCRETE LABEL>
N

$$$$

Let's switch to this compound now.
(Q) What was the test verdict on CO[C@@H]1[C@H](OC(=O)NC(=O)CCl)CC[C@]2(CO2)[C@H]1[C@@]1(C)O[C@@H]1CC=C(C)C ?
(A) Y

Data origin, for the record: PubChem BioAssay (EPA / NIEHS)
